ASSAY INFO: in vitro
CONDITIONS: human, hela cells, % viability
ASSAY READOUT: viability at 28.5 h, 10 µM (%)
The figure you give is taken to be in %; do not add the unit.

Request: Give viability at 28.5 h, 10 µM for Cc1c(C(=O)O)sc(S(=O)(=O)N2CCN(C(=O)c3ccc(Cl)cc3)CC2)c1C(=O)O [CBK297123]
Result: 96.9

Request: Give viability at 28.5 h, 10 µM for O=C(Cc1cccnc1)N1Cc2ccccc2C1 [CBK200320]
Result: 90.5

Request: Give viability at 28.5 h, 10 µM for CN1CCC(COC(=O)Nc2cccnc2)CC1 [CBK138232]
Result: 108

Request: Give viability at 28.5 h, 10 µM for FC(F)(F)c1cccc(CC2CSC(=S)N2)c1 (centres unmarked) [CBK022895]
Result: 92.2

Request: Give viability at 28.5 h, 10 µM for Cc1cc2nc(SCCO)[nH]c2cc1C [CBK027546]
Result: 94.1

====

Task for the reader: assign each of the following compounds its reported viability at 28.5 h, 10 µM.
ASSAY INFO: in vitro
CONDITIONS: human, hela cells, % viability
The figure you give is taken to be in %; do not add the unit.

Request: Give viability at 28.5 h, 10 µM for CCOC(=O)c1c(NC(=O)CSc2nnnn2C)sc2c1CCCC2
Result: 103

Request: Give viability at 28.5 h, 10 µM for NC(=O)c1c(F)cccc1-c1cc(NCCO)nc2[nH]ccc12
Result: 112

Request: Give viability at 28.5 h, 10 µM for Cc1ccc(S(=O)(=O)NC(Cc2c[nH]c3ccccc23)C(=O)O)cc1 (stereo not shown)
Result: 103

Request: Give viability at 28.5 h, 10 µM for Fc1cc(Br)c(CNCc2ccno2)c(N2CCCCC2)c1F
Result: 86.8

Request: Give viability at 28.5 h, 10 µM for O=C1CN(c2ccccc2)C(=O)N1c1ccccc1
Result: 98.2

Request: Give viability at 28.5 h, 10 µM for COC(=O)C(C)CN1CC2CCC(CC2)C1 (stereo not shown) [CBK022785C]
Result: 106

Request: Give viability at 28.5 h, 10 µM for Cc1nc(C(=N)N)nc2ccccc12 [CBK010368C]
Result: 86.3

Request: Give viability at 28.5 h, 10 µM for C[C@@H](Cn1nc2c(cc1=O)CCCC2)NC(=O)Cc1cccc(F)c1
Result: 95.9

Request: Give viability at 28.5 h, 10 µM for O=C(COc1ccccc1)NC(/C=C/c1ccccc1)c1cc(Cl)c2cccnc2c1O (stereo not shown)
Result: 104

Request: Give viability at 28.5 h, 10 µM for O=S(=O)(Cc1ccccc1)c1cc2c(N3CCNCC3)nccc2s1 [CBK200017C]
Result: 91.9

====

Task for the reader: assign each of the following compounds its reported viability at 28.5 h, 0.111 µM.
ASSAY INFO: in vitro
Parameters: Viability of infected HeLa host cells, resazurin conversion, bulk resorufin fluorescence relative to DMSO
CONDITIONS: human, hela cells; bulk resorufin, mean of 3
The figure you give is taken to be in %; do not add the unit.

Request: Give viability at 28.5 h, 0.111 µM for COc1c(Br)cc2c(cc(C)n2-c2ccccc2)c1OCC(O)CNC(C)C (centres unmarked)
Result: 91.6

Request: Give viability at 28.5 h, 0.111 µM for O=C(Nc1ccc(F)c(F)c1)NC1CCC2CN(CCOc3ccccc3)CC2C1 (centres unmarked)
Result: 92

Request: Give viability at 28.5 h, 0.111 µM for CNC(=S)N1CCN(c2nsc3ccccc23)CC1
Result: 105

Request: Give viability at 28.5 h, 0.111 µM for CCCCc1ccc(NC(=N)Nc2nc(C)cc(C)n2)cc1 [c33e]
Result: 92.6

Request: Give viability at 28.5 h, 0.111 µM for O=[N+]([O-])c1ccc(-n2cnc3ccccc32)c([N+](=O)[O-])c1 [c41e]
Result: 97.8

====

ASSAY INFO: in vitro
CONDITIONS: human, hela cells, % viability
Task for the reader: assign each of the following molecules its reported viability at 28.5 h, 10 µM.

Request: Give viability at 28.5 h, 10 µM for CCOCCn1cnc2sc(C(=O)NCc3ccccn3)c(C)c2c1=O [CBK071857]
Result: 93.4%

Request: Give viability at 28.5 h, 10 µM for CNC(=O)c1ccc(-c2cc(OC)c(OC)c(OC)c2)nc1NCCOC [CBK105997]
Result: 94.1%

Request: Give viability at 28.5 h, 10 µM for Cc1ccccc1C(c1cnccn1)N(C)C(=O)C1CCN(S(=O)(=O)c2cn(C)cn2)CC1 (centres unmarked) [CBK060264]
Result: 93.1%

Request: Give viability at 28.5 h, 10 µM for O=C(Cc1ccccc1)N1CCN(Cc2ccccn2)CC1 [CBK263039]
Result: 88.6%

Request: Give viability at 28.5 h, 10 µM for CCCCN(CCCC)S(=O)(=O)c1nc2nc(C)cc(C)n2n1 [CBK022076]
Result: 79.7%

====

ASSAY INFO: in vitro
CONDITIONS: human, hela cells, % viability
ASSAY READOUT: viability at 28.5 h, 10 µM (%)
The figure you give is taken to be in %; do not add the unit.

Request: Give viability at 28.5 h, 10 µM for CC(C)C(N)c1nnc(SCc2ccccc2Cl)o1 (stereo not shown) [CBK270121C]
Result: 92

Request: Give viability at 28.5 h, 10 µM for Cc1cc(C(=O)N2CCN(Cc3ccc(F)cc3Cl)CC2)no1
Result: 100

Request: Give viability at 28.5 h, 10 µM for Cn1cc(CC(=O)N2CCCc3ccccc32)c2ccccc21
Result: 64.8

Request: Give viability at 28.5 h, 10 µM for Cc1nccn1CC(=O)N1CCCC1(C)C(=O)NC1CCCC1 (stereo not shown)
Result: 98.7

Request: Give viability at 28.5 h, 10 µM for CSCCN1CCN(c2nccnc2OCC2COc3ccccc3O2)CC1 (stereo not shown) [CBK082806T]
Result: 85.2

Request: Give viability at 28.5 h, 10 µM for CCc1c(C)sc(NC(=S)Nc2cnccn2)c1C(=O)OC
Result: 96.5

Request: Give viability at 28.5 h, 10 µM for COc1cccc(C(NC(=O)C2CCN(Cc3cccs3)CC2)c2cnccn2)c1 (stereo not shown)
Result: 106

Request: Give viability at 28.5 h, 10 µM for Cc1ccc(S(=O)(=O)Cc2ccc(C(=O)N3CCN(Cc4ccccc4)CC3)cc2)cc1
Result: 86.1

Request: Give viability at 28.5 h, 10 µM for Cc1cc(C)n(CC(=O)Nc2nc(CN3CCC(C)CC3)cs2)n1
Result: 101

Request: Give viability at 28.5 h, 10 µM for Cc1ccc(C(=O)Cn2c3ccccc3n3ncnc23)cc1
Result: 99.6

====

ASSAY INFO: in vitro
CONDITIONS: human, hela cells, % viability
Task for the reader: assign each of the following compounds its reported viability at 28.5 h, 10 µM.
The figure you give is taken to be in %; do not add the unit.

Request: Give viability at 28.5 h, 10 µM for Cn1c(=O)c2c(ncn2CCOc2cnc(-c3cnn(Cc4ccccc4)c3)c(N)n2)n(C)c1=O
Result: 97.4

Request: Give viability at 28.5 h, 10 µM for CNc1nc(C)c(C(=O)N2CCCC(COc3ccc(F)cc3)C2)s1 (stereo not shown)
Result: 103

Request: Give viability at 28.5 h, 10 µM for Cc1nc2c(C(=O)NCC(F)(F)F)cnn2c(C)c1Cc1ccccc1
Result: 94.8

Request: Give viability at 28.5 h, 10 µM for O=C(Oc1ccccc1O)c1cccc(Cl)c1
Result: 97.1

Request: Give viability at 28.5 h, 10 µM for CCCS(=O)(=O)n1ccn(-c2ccc(Cl)c(Cl)c2)c1=O
Result: 110

Request: Give viability at 28.5 h, 10 µM for Cc1onc(-c2ccccc2Cl)c1C(=O)N(C)C
Result: 102

Request: Give viability at 28.5 h, 10 µM for CCn1cc(C2CN(S(=O)(=O)c3cccc(C)c3Cl)CCO2)cn1 (stereo not shown)
Result: 91.3

Request: Give viability at 28.5 h, 10 µM for CC1CCN(CC(=O)NC2CCN(C(C)c3ccccc3)CC2)CC1 (stereo not shown)
Result: 101

Request: Give viability at 28.5 h, 10 µM for O=C1NC2(CCN(C(=O)C3CCCC3)CC2)Nc2ccccc21
Result: 94.9

Request: Give viability at 28.5 h, 10 µM for COc1ccc(Nc2nc(Cl)nc(NCCN3CCOCC3)n2)cc1
Result: 104

Request: Give viability at 28.5 h, 10 µM for CCOC(=O)C1=C(C)N(CCO)C(=O)NC1c1ccccc1Br (stereo not shown)
Result: 104

Request: Give viability at 28.5 h, 10 µM for COc1ccccc1-c1nnc(SC)n1-c1ccc(C)cc1
Result: 93.2

Request: Give viability at 28.5 h, 10 µM for O=C(Cc1ccccn1)N1CCC(c2cccc(Cc3ccc(C(F)(F)F)cc3)n2)CC1
Result: 101

Request: Give viability at 28.5 h, 10 µM for CCCC(=O)c1ccc(S(=O)(=O)N2CCN(Cc3c[nH]nc3-c3cccs3)CC2)cc1
Result: 79.6

Request: Give viability at 28.5 h, 10 µM for CS(=O)(=O)c1ccc(CNc2nccnc2-c2ccccc2F)cc1
Result: 96.4

Request: Give viability at 28.5 h, 10 µM for Clc1ccccc1CN(CCCn1ccnc1)Cc1c[nH]cn1
Result: 100

Request: Give viability at 28.5 h, 10 µM for COc1ccccc1NC(=O)c1c(NC(=O)Cc2ccccc2)sc2c1CCC(C(C)(C)C)C2 (stereo not shown)
Result: 94.1

Request: Give viability at 28.5 h, 10 µM for CCOc1ccccc1C(=O)N1CCC(Cc2ccccc2-c2ccccc2)(C(N)=O)CC1
Result: 89.6

Request: Give viability at 28.5 h, 10 µM for Nc1c(C(=O)NCC2CCCO2)c2nc3ccccc3nc2n1C1CCCC1 (stereo not shown)
Result: 112
